# TARGET_OR_TEST_SYSTEM: HLA-A*02:50
# ASSAY_PROTOCOL: IEDB peptide-MHC binding, purified MHC/competitive/fluorescence; filed as Kd, often an IC50 or EC50 that approximates it; bounds were set here for any values at or beyond the usual limits of such assays
# RUN_PARAMETERS: source organism: Klebsiella pneumoniae
MEASURED_ENDPOINT: Kd (nM)

>>> measured_value("LLQEKYGLI")
17.7

* * *

# TARGET_OR_TEST_SYSTEM: HLA-B*58:01
# ASSAY_PROTOCOL: IEDB peptide-MHC binding, purified MHC/direct/fluorescence; filed as Kd, often an IC50 or EC50 that approximates it; bounds were set here for any values at or beyond the usual limits of such assays
# RUN_PARAMETERS: source organism: Mammarenavirus juninense
pKd: −log10 of the molar value.
MEASURED_ENDPOINT: pKd

>>> measured_value("QLAKRSEIL")
"≤ 4.70"
